Attribution: PubChem BioAssay (NCI)

- System: SNB-75 CNS
- Test name: NCI-60 one-dose screen, 48 h (100 = growth as untreated, 0 = no growth, -100 = all killed)
- Assay context: 10 µM unless noted
The panel holds about 83,000 compounds, 20% with a hit somewhere; the sample as a whole holds those more often.
Measurement label: growth (%)
Give bare numbers, in %.

O=c1ssc(Cl)c1-c1ccccc1	90.5
COc1cc(N2C(=O)c3nccnc3C2=O)cc(OC)c1OC	103
O=c1c2cc(F)ccc2sc2c(NCCN3CCCCC3)nc3ccccc3c12	37.3
O=C1CCC2=C3C4CCCCC4C(=O)C4CCCC(OC2C1)C34 (stereo not given)	43.1
CC1SC(c2ccc(OCc3ccccc3)cc2)N(NC(=O)C(O)(c2ccccc2)c2ccccc2)C1=O (stereo not given)	77.5

Give growth for all molecules that follow.
1. COc1cc(C2CC(=O)Nc3c2c(C)nn3-c2nc3ccccc3[nH]2)c(OC)c(OC)c1OC (stereo not given)
2. O=C1/C(=C/c2ccccc2)CCc2nc3ccccc3c(/C=C/c3ccc(Cl)cc3)c21

1: 1.94; 2: 76.5

Give growth for all molecules that follow.
1. CC(=O)O[C@]1(C(C)=O)CCC2C3C[C@H](C)C4=CC(=O)CC[C@]4(C)C3CC[C@@]21C (stereo not given in full)
2. COc1cccc(-c2nn(-c3ccccc3)cc2-c2ccnc(NCCCNC(=O)c3ccc(F)cc3)c2)c1
3. N#CC1=C(c2ccc(Br)cc2)NC(SCC(=O)c2ccc(Br)cc2)NC1=O (stereo not given)

1. 96
2. 46.2
3. 98.7

###

- System: EKVX NSCLC
- Test name: NCI-60 one-dose screen, 48 h (100 = growth as untreated, 0 = no growth, -100 = all killed)
- Assay context: 10 µM unless noted
This is part of a sample that, as a whole, favours compounds with a hit. Of some 83,000 tested, about 20% had one in any assay.
Tick MET if growth is 70% or greater. Tick NOT MET if growth is less than 70%.

// below: answered molecules
Cc1ccc2c(c1)Sc1c(ccc3ccccc13)N2	MET
Cc1cccc(NC(=O)CSc2nc3ccccc3[nH]2)c1	MET
Cc1ccc(C(=NN=C(N)N)c2ccc(C)cc2)cc1	NOT MET
CN(C)c1ccc(-c2cc(-c3ccc(Nc4nc(Nc5ccc(Cl)cc5)nc(Nc5ccc(Cl)cc5)n4)cc3)no2)cc1	NOT MET

Hi team, for CN(C)c1ccc(/C=C/C(=O)c2cccc(Nc3nc(Nc4ccccc4)nc(Nc4ccccc4)n3)c2)cc1 , is the recorded growth at or above 70%?
MET

###

- Tested on: MDA-MB-435 melanoma
- Test name: NCI-60 one-dose screen, 48 h (100 = growth as untreated, 0 = no growth, -100 = all killed)
- Assay context: 10 µM unless noted
About 83,000 compounds went through this panel and 20% of them were active in at least one assay; those are over-represented in the sample as a whole.
For each record, write down the corresponding growth.
Give bare numbers, in %.

COc1cccc(-c2nn(-c3ccccc3)cc2-c2ccnc(NCCNC(=O)Nc3ccccc3)c2)c1	42.9
Cc1nc2c(c(N3CCCc4ccccc43)n1)CCC2	1.15
COc1ccc2c(c1)C(=O)/C(=C/c1ccc(OCC(=O)Nc3nccs3)cc1)O2	92.5
COc1ccc(NC(=O)CSc2nnc(-c3cc(-c4ccccc4)nc4ccccc34)n2-c2ccccc2)cc1	99.2

Give growth for all compounds that follow.
1. COc1ccc(C(=O)Nn2c(NCC(=O)N3c4ccccc4Sc4ccccc43)nnc2-c2ccc(O)cc2)cc1
2. CCOC(=O)c1c2ncccc2n2c(=O)n(-c3ccccc3C)nnc12
3. O=S(=O)(NCCCNc1cc(-c2c(-c3cccc(O)c3)nc3sccn23)ccn1)c1cccc(Cl)c1

1. 102
2. 116
3. 27.4
